- SYSTEM_UNDER_TEST: isolated recombinant JAK2 kinase domain (Homo sapiens (Human), UniProt O60674)
- Sequence (O60674 849-1124): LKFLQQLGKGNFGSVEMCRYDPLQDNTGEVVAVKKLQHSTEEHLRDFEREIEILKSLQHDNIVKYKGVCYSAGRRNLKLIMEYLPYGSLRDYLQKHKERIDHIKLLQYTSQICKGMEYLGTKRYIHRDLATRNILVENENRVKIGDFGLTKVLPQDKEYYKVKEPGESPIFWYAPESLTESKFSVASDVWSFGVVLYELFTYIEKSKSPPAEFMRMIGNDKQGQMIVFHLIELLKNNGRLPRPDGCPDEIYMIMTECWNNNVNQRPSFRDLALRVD
- ASSAY_INFO: JAK2 enzyme assay (Caliper LabChip, peptide phosphorylation)
- SETTINGS: 25 μM ATP
Listed below: pKi values for each entry.
Reminder that pKi means the negative base-10 logarithm of the concentration expressed in mol/L.

Below, 5 molecules whose answers are already recorded.
[[record]]
cpd_smiles = "O=C(Nc1cn(CC(=O)N2C[C@H]3CN(CC4(O)CCCCC4)C[C@H]3C2)nc1-c1cc(Cl)ccc1OC(F)F)c1cnn2cccnc12"
system_under_test = "isolated recombinant JAK2 kinase domain (Homo sapiens (Human), UniProt O60674)"
endpoint_name = "pKi"
experimental_value = 9.15

[[record]]
cpd_smiles = "O=C(Nc1cn(CC(=O)N2CCN(CCOCCO)CC2)nc1-c1cc(Cl)ccc1OC(F)F)c1cnn2cccnc12"
system_under_test = "isolated recombinant JAK2 kinase domain (Homo sapiens (Human), UniProt O60674)"
endpoint_name = "pKi"
experimental_value = 8.93

[[record]]
cpd_smiles = "N#Cc1ccc(N2CCN(C(=O)Cn3cc(NC(=O)c4cnn5cccnc45)c(-c4cc(Cl)ccc4OC(F)F)n3)CC2)cc1"
system_under_test = "isolated recombinant JAK2 kinase domain (Homo sapiens (Human), UniProt O60674)"
endpoint_name = "pKi"
experimental_value = 9.12

[[record]]
cpd_smiles = "O=C(Nc1cn(CCNCc2cccnc2)nc1-c1cc(Cl)ccc1OC(F)F)c1cnn2cccnc12"
system_under_test = "isolated recombinant JAK2 kinase domain (Homo sapiens (Human), UniProt O60674)"
endpoint_name = "pKi"
experimental_value = 9.29

[[record]]
cpd_smiles = "CN1[C@@H]2CC[C@H]1CN(C(=O)Cn1cc(NC(=O)c3cnn4cccnc34)c(-c3cc(Cl)ccc3OC(F)F)n1)C2"
system_under_test = "isolated recombinant JAK2 kinase domain (Homo sapiens (Human), UniProt O60674)"
endpoint_name = "pKi"
experimental_value = 8.99


Ask | Consider the molecule shown here: CCOC(=O)CN1CCN(C(=O)Cn2cc(NC(=O)c3cnn4cccnc34)c(-c3cc(Cl)ccc3OC(F)F)n2)CC1 What is its recorded pKi?
Reply | 9.11

Ask | What would you report for O=C(Nc1cn(CCNCc2ncco2)nc1-c1cc(Cl)ccc1OC(F)F)c1cnn2cccnc12 ?
Reply | 9.30

Ask | What would you report for CS(=O)(=O)CCCN1C[C@@H]2CN(C(=O)Cn3cc(NC(=O)c4cnn5cccnc45)c(-c4cc(Cl)ccc4OC(F)F)n3)C[C@@H]2C1 ?
Reply | 9.26

Ask | What would you report for CN(C)CC#Cc1nc(-c2cc(Cl)ccc2OC(F)F)c(NC(=O)c2cnn3cccnc23)s1 ?
Reply | 9.55

Ask | What would you report for O=C(CCCN1CCC(n2cc(NC(=O)c3cnn4cccnc34)c(-c3cc(Cl)ccc3OC(F)F)n2)CC1)NC1CCOCC1 ?
Reply | 9.72

Ask | What would you report for O=C(Nc1cn(CC(=O)N2CCC(OCC(=O)N3CCOCC3)CC2)nc1-c1cc(Cl)ccc1OC(F)F)c1cnn2cccnc12 ?
Reply | 8.89

Ask | What would you report for Nc1nn2cccnc2c1C(=O)Nc1cn(CC(=O)N2CCC(CO)CC2)nc1-c1cc(Cl)ccc1OC(F)F ?
Reply | 10.00

Ask | What would you report for NC(=O)CCCN1CCC(n2cc(NC(=O)c3c(N)nn4cccnc34)c(-c3cc(Cl)ccc3OC(F)F)n2)CC1 ?
Reply | 9.74

Ask | What would you report for O=C(Nc1cn(CC(=O)N2CCC(NCCc3ccccc3)CC2)nc1-c1cc(Cl)ccc1OC(F)F)c1cnn2cccnc12 ?
Reply | 8.84

Hello, the source for this data is patent US9346815B2, in case you need it.
